# procedureSummary: Plasma protein binding by equilibrium dialysis, human
# Assay type: in vitro ADME
# measurementSetup: human, plasma, Human plasma, 1 μM, equilibrium dialysis 6 hours
Reported values of recovery at 6 h, 1 µM for individual entries
Your answer is read as %, so omit the unit and give the number.

q: Give the measured recovery at 6 h, 1 µM of CSc1ccc2[nH]cc(C[C@H]3CCCN3C)c2c1 [(R) I-1] .
a: 102

Continuing:
q: Give the measured recovery at 6 h, 1 µM of CC(=O)N1CCN(c2ccc(OCC3COC(Cn4ccnc4)(c4ccc(Cl)cc4Cl)O3)cc2)CC1 (centres unmarked) [Ketoconazole, reference compound] .
a: 112
